- Protocol: Stability in simulated gastric fluid TS assessed as parent compound remaining at 24 hrs
- Assay type: ADME
- Reported conditions: read-out: Stability
Experimental readout: remaining at 24 h (%)
The response must be a number in % with no trailing unit.

Smiles representation	Experimental readout	Recorded value
N#C/C(=C\c1cccc2cnccc12)c1cn(C(=O)C2CCNCC2)c2ccccc12	remaining at 24 h	75

-- ask Given the compound CN1CCN(CC(=O)n2cc(/C(C#N)=C/c3cccc4cnccc34)c3ccccc32)CC1 , what is its reported remaining at 24 h?
-- reply 50

----------
- Test system: BJ
- Protocol: Induction of autophagy in transformed human BJ cells assessed as increase in LC3-2 to LC3-1 ratio at 5 uM after 24 hrs by Western blot analysis relative to control
- Format: functional
# maps each entry to its fold change (FC)
Keep the answer to the number alone.

Some entries whose results are on file:
Smiles representation	Experimental readout	Recorded value
CC(C)(C)OC(=O)N1CCC(C(=O)n2cc(/C(C#N)=C/c3cccc4cnccc34)c3ccccc32)CC1	fold change (FC)	5.2
CC(=O)NCCC(=O)n1cc(/C(C#N)=C/c2cccc3cnccc23)c2ccccc21	fold change (FC)	2.3
CC(C)(C)OC(=O)NCCC(=O)n1cc(/C(C#N)=C/c2cccc3cnccc23)c2ccccc21	fold change (FC)	3.9

-- ask Given the compound N#C/C(=C\c1cccc2cnccc12)c1c[nH]c2ccccc12 , what is its reported fold change (FC)?
-- reply 5

Just for reference, ChEMBL document CHEMBL4371026 is where these values come from.
